# measurement protocol: Phase I study CXR1002-001: plasma pharmacokinetics (LC-MS/MS)
# Assay type: in vivo, human
# condition label: human, plasma, oral, 100 mg, Patient 007 Dose 100 mg; 24 hr (Day 2); read-out: Concentration
readout kind: concentration at 24 hr (µM)

O=C(O)C(F)(F)C(F)(F)C(F)(F)C(F)(F)C(F)(F)C(F)(F)C(F)(F)F [CXR1002]    17.3

###

# measurement protocol: Phase I study CXR1002-001: plasma pharmacokinetics (LC-MS/MS)
# Type: in vivo, human
# condition label: human, plasma, oral, 600 mg, Patient 024, 600 mg, person, plasma, 336 hr (Day 15); read-out: Concentration
readout kind: concentration at 336 h (µM)

O=C(O)C(F)(F)C(F)(F)C(F)(F)C(F)(F)C(F)(F)C(F)(F)C(F)(F)F [CXR1002]    488
